- Test system: Streptococcus pneumoniae
- procedureSummary: Antibacterial activity against Streptococcus pneumoniae 49619 by broth microdilution method
- Assay type: functional
Give MIC for every item shown.

Prompt line: Given CC[C@H]1OC(=O)[C@H](C)C(=O)[C@H](C)[C@@H](O[C@@H]2O[C@H](C)C[C@H](N(C)C)[C@H]2O)[C@](C)(OC)C[C@@H](C)C(=O)[C@H](C)[C@@H]2[C@@H]1OC(=O)N2CCCCc1ccc(-c2cccnc2)s1 , respond with its MIC.
Response line: ≤ 0.05 µg/mL

Prompt line: Given CC[C@H]1OC(=O)[C@H](C)C(=O)[C@H](C)[C@@H](O[C@@H]2O[C@H](C)C[C@H](N(C)C)[C@H]2O)[C@](C)(OC)C[C@@H](C)C(=O)[C@H](C)[C@@H]2[C@@H]1OC(=O)N2CCCCc1ccc2ccccc2n1 , respond with its MIC.
Response line: ≤ 0.05 µg/mL
